Tested on: Plasmodium falciparum
Assay Comment: GSK_TCMDC: Inhibition of Plasmodium falciparum Dd2 in whole red blood cells, using parasite LDH activity as an index of growth. Test compounds present at 2uM
Assay type: functional
Checkbox rule: Inhibition lower than 40% = class 1; Inhibition not lower than 40% = class 0.

A selection of reference data follows.
Compound	Tested System	Discrete Label
O=C(Nc1ccccc1)Nc1ccc(-n2ccc(C(F)(F)F)n2)cc1	Plasmodium falciparum	class 0
Cl.N=C(NCCc1ccccc1Cl)c1ccc2ccccc2c1	Plasmodium falciparum	class 1
CN(C)c1ccc(-c2ccc(C(=O)NC3CCN(Cc4cccc(C(F)(F)F)c4)CC3)s2)cc1.O=C(O)C(F)(F)F	Plasmodium falciparum	class 0
Cc1cc(OCC2CCN(c3ncc(C(=O)NC4CC4)cc3Cl)CC2)ccc1F	Plasmodium falciparum	class 0
O=C(NCC1CC1)C1Cc2c([nH]c3ccc(Br)cc23)C2(CCN(CCc3ccccc3)CC2)N1 (stereo unspecified)	Plasmodium falciparum	class 1
Cc1ccc(NC(=O)N2CCCN(CCCCCNC(=O)/C=C/c3ccc(Cl)c(Cl)c3)CC2)cc1C	Plasmodium falciparum	class 1

Problem: Bench note: check whether `CCCCCCCc1c(C)nc2cc(OC)ccc2c1O` shows Inhibition below 40%
Solution: class 0

Problem: Bench note: check whether `O=C(O)C(F)(F)F.O=[N+]([O-])c1cccc(CNCC2CCN(Cc3ccc4ccccc4c3)CC2)c1` shows Inhibition below 40%
Solution: class 0

Problem: Bench note: check whether `Cc1cc(CN2CC[C@H](NC(=O)c3ccc(Cl)c(Cl)c3)C2)ccc1OC1CCN(Cc2ccccc2)CC1.O=C(O)C(F)(F)F` shows Inhibition below 40%
Solution: class 1

Problem: Bench note: check whether `FC(F)(F)c1ccc2[nH]c(-c3ccc(-c4cccc(CNCc5ccccc5)c4)s3)nc2c1.O=C(O)C(F)(F)F` shows Inhibition below 40%
Solution: class 0

Problem: Bench note: check whether `CN(C)S(=O)(=O)c1cc(-c2ccc3nccc(-c4cccc(S(N)(=O)=O)c4)c3c2)cnc1N` shows Inhibition below 40%
Solution: class 0

Problem: Bench note: check whether `CC(C)(C)c1ccc(CN2CCC(NC(=O)c3ccc(-c4ccccc4Cl)s3)CC2)cc1.O=C(O)C(F)(F)F` shows Inhibition below 40%
Solution: class 1

Problem: Bench note: check whether CCC(C)c1cnc2nc(N)nc(N)c2c1C (stereo unspecified) shows Inhibition below 40%
Solution: class 1

Problem: Bench note: check whether `Cc1[nH]c(C)c(-c2ccc(OCCCc3ccccn3)cc2)c(=O)c1Br.Cl` shows Inhibition below 40%
Solution: class 0

Problem: Bench note: check whether `CCCN1CCN(CCCNC(=O)c2cc3c(-c4ccc(Cl)cc4)nn(C)c3s2)CC1` shows Inhibition below 40%
Solution: class 1

Problem: Bench note: check whether CC(C(=O)NC1CCN(c2ccnc(Nc3ccc(F)cc3)n2)C1)c1ccc(Cl)cc1 (stereo unspecified) shows Inhibition below 40%
Solution: class 0

Problem: Bench note: check whether `CCN(CC)CCN(Cc1ccc(-c2ccc(C(F)(F)F)cc2)cc1)C(=O)Cn1c(CCc2cccc(F)c2F)nc(=O)c2ccc(C)cc21.O=C(O)C(O)C(O)C(=O)O` shows Inhibition below 40%
Solution: class 0

Problem: Bench note: check whether `Cc1cc(N[C@@H](Cc2ccccc2)C(=O)NCc2cccc(F)c2)nc(NCCc2ccc(F)cc2)n1.O=C(O)C(F)(F)F` shows Inhibition below 40%
Solution: class 0

Problem: Bench note: check whether `O=C(Nc1cccc(-c2cccc(-c3ccc(F)cc3)n2)c1)c1ccc([N+](=O)[O-])o1` shows Inhibition below 40%
Solution: class 0

Problem: Bench note: check whether `COc1cc(C(C)C)ccc1N1CCN(CCCCNC(=O)c2ccc(NC(=O)c3ccc(Cl)cc3)cc2)CC1` shows Inhibition below 40%
Solution: class 0

Problem: Bench note: check whether `Br.N=C(N)Nc1nc(-c2cc(NC(=O)C(F)(F)F)cc([N+](=O)[O-])c2)cs1` shows Inhibition below 40%
Solution: class 0

Problem: Bench note: check whether `O=C(NC1CCN(Cc2ccccc2)CC1)c1cccc(Nc2nc(-c3ccccc3)cs2)c1` shows Inhibition below 40%
Solution: class 1
